Test: In vivo PK study in CD-1 male mice (plasma)
Set-up: species or system CD-1 mice
Details: mouse, plasma; male CD-1 mice, IP, 50 mg/kg, n = 3
Method: In vivo mouse studies were performed at Pharmaron in CD-1 male mice in triplicate. The test compounds were formulated within a 4 mg/mL solution (10% DMA, 65% PEG400, 25% saline). CD-1 mice were administered the test compound (50 mg/kg, I.P) once, and blood samples were obtained from each mouse at 0.25, 0.5, 1, 2, 4, 8, and 24 h post-dose. […] Diluted supernatant was injected into the LC-MS/MS system for quantitative analysis.
Reported property: Cmax (ng/mL)

INSERT INTO results (compound, number) VALUES
  ('CC(C)N(Cc1ccc(C(=O)NO)cc1F)S(=O)(=O)c1cc(F)c(F)c(F)c1F', 3190);

====

system: SNK6 cells; test: Cytotoxicity assay (Cell Titer-Blue, 72 h); format: cell-based; details: Homo sapiens, one representative of three experiments
pIC50: −log10 of the molar value.
Reported property: pIC50

INSERT INTO results (compound, target_under_test, number) VALUES
  ('CC(C)N(Cc1ccc(C(=O)NO)cc1F)S(=O)(=O)c1cc(F)c(F)c(F)c1F [NN-429]', 'SNK6 cells', 4.92);

====

tested on: Hut78 cells; test: Cytotoxicity assay (Cell Titer-Blue, 72 h); format: cell-based; settings: Homo sapiens, one representative of three experiments
pIC50: −log10 of the molar value.
Reported property: pIC50

INSERT INTO results (compound, number) VALUES
  ('CC(C)N(Cc1ccc(C(=O)NO)cc1F)S(=O)(=O)c1cc(F)c(F)c(F)c1F', 4.78);

====

test system: HH cells; assay: Cytotoxicity assay (Cell Titer-Blue, 72 h); assay type: cell-based; details: Homo sapiens, one representative of three experiments
pIC50: −log10 of the molar value.
Reported property: pIC50

INSERT INTO assay_data (compound, reported_property, number) VALUES
  ('CC(C)N(Cc1ccc(C(=O)NO)cc1F)S(=O)(=O)c1cc(F)c(F)c(F)c1F', 'pIC50', 5.53);

====

Test system: MTA cells
Experiment: Cytotoxicity assay (Cell Titer-Blue, 72 h)
Type: cell-based
Conditions: Homo sapiens, one representative of three experiments
Protocol: KHYG-1, SNK6, MTA, YT, DERL-2, DERL-7, Mac2a, SU-DHL-1, Myla, Hut78, SeAx, HH, MOTN-1, KOPT-K1, Jurkat, and Loucy cells were plated in 96-well flat-bottom sterile culture plates with low-evaporation lids (Costar #3997). […] After 72 h, Cell Titer-Blue® (Promega #G808A) was added to each well (20 μL), and the fluorescence was measured at 560/590 nm using a Cytation S63 spectrophotometer (BioTek) or on the GloMax® Discover Microplate Reader (Promega, Madison, WI, USA). […]
pIC50: −log10 of the molar value.
Reported property: pIC50

INSERT INTO results (compound, number) VALUES
  ('CC(C)N(Cc1ccc(C(=O)NO)cc1F)S(=O)(=O)c1cc(F)c(F)c(F)c1F', 6.14);

====

tested on: SU-DHL-1 cells; assay: Cytotoxicity assay (Cell Titer-Blue, 72 h); format: cell-based; details: Homo sapiens, one representative of three experiments
Reported property: IC50

INSERT INTO measurements (compound, reported_property, result) VALUES
  ('CC(C)N(Cc1ccc(C(=O)NO)cc1F)S(=O)(=O)c1cc(F)c(F)c(F)c1F [NN-429]', 'IC50', '4.72 µM');
